Catalogue of normalized growth readings, one per entry.
- protocol.details: chemical genetic growth profiling, strain panel (AID 1159580);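 also: tested at 20 µM; growth read once vehicle control cultures reached saturation at 30 °C; 1 = growth at the plate median or of vehicle wells; lower values mean less growth of the strain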
- recorded.conditions: S. cerevisiae deletion strains, growth OD, locus YJL187C, strain SWE1 (second series), stronger effect = lower value
The whole screen tested about 5,500 compounds, of which about 2,000 (36%) were called active. Not shown: some 18% with an inconclusive outcome. This is one part of the list.
No unit in the answer, only the number.

State the recorded normalized growth for this entry: `C[n+]1cc2c3c(ccc2c2ccc4cc5c(cc4c21)OCO5)OCO3`
0.0606

// returns reported normalized growth for input `COc1ccc2cc3[n+](cc2c1OC)CCc1cc2c(cc1-3)OCO2`
0.291

Further cases:
Fill in: normalized growth of `CC(C)Oc1ccc2c(=O)cc(-c3ccccc3)oc2c1` is ___
0.906

Field request: normalized growth | item: `COc1cc([C@@H]2c3cc4c(cc3[C@H](O)[C@H]3COC(=O)[C@@H]23)OCO4)cc(OC)c1OC`
1.01

What value of normalized growth has been reported for the following molecule? `C[N+]1(CCCCC[N+]2(C)CCCC2)CCCC1`
1.02

Which normalized growth reading was recorded for the molecule `COc1ccc(-c2cc(=O)c3c(OC)cccc3o2)cc1` ?
1.03

Value lookup for normalized growth; key = `COc1c(O)cccc1O`
1.03

Any idea what normalized growth was measured for C=CCCCCCCCCCCCC(O)CC(O)CO (stereo unspecified) (tested in a mixture with another compound) ?
0.386

Sample `COc1c(O)cc2c(-c3ccccc3)cc(=O)oc2c1OC` — what was its normalized growth?
1

Dear colleague, I am looking for the recorded normalized growth of the following molecule: `COc1cc2cc[n+]3cc4c(OC)c(OC)ccc4cc3c2cc1OC`
0.976

Quick check: normalized growth of `CCn1cc(C(=O)O)c(=O)c2cc(F)c(N3CCNCC3)cc21` ?
1.01
